Target: Protein deacetylase HDAC6 (Homo sapiens, UniProt Q9UBN7)
Sequence (Q9UBN7 whole entry): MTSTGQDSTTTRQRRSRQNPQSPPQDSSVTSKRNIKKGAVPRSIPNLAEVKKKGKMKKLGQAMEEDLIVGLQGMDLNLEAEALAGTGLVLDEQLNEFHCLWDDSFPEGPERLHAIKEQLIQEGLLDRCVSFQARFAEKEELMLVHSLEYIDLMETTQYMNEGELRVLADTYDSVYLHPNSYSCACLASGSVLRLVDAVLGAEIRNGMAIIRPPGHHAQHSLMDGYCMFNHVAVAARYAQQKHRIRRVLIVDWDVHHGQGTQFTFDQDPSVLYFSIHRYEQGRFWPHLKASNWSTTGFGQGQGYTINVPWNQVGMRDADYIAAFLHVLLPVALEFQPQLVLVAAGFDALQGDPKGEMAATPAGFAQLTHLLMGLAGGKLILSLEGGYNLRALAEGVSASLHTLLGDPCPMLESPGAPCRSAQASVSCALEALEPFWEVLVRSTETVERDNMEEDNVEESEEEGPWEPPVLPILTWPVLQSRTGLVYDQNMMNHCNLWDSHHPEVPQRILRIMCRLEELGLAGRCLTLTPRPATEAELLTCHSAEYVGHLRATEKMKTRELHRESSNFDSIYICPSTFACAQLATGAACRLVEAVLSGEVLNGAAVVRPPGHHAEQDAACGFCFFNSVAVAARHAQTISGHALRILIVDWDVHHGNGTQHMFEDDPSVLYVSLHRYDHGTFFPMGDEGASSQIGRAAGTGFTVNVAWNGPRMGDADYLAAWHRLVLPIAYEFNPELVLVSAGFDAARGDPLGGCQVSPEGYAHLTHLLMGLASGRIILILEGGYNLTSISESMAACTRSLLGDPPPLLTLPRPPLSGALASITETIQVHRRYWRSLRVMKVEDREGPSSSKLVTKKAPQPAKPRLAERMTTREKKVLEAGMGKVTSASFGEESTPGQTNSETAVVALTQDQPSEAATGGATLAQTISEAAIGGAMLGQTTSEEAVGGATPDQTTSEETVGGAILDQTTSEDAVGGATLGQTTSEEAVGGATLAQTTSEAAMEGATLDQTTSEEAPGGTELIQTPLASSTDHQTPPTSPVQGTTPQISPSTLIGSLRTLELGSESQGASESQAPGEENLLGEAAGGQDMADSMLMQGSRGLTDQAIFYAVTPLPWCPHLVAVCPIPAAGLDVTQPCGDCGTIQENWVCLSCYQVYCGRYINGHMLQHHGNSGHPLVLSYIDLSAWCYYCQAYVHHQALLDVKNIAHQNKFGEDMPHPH
Experiment: Inhibition of HDAC6 (unknown origin) using (FAM)-labeled acetylated peptide as substrate measured after 17 hrs by fluorescence assay
result_type: IC50

Could you please provide reported IC50 for `Nc1cccc(-c2csc(NC(=O)CCCCCCC(=O)Nc3ccccc3N)n2)c1` ? Thanks!
> 30 µM

Could you please provide reported IC50 for `Nc1ccccc1NC(=O)CCCCCCC(=O)Nc1ccc(-c2cn(Cc3ccccc3)nn2)cc1` ? Thanks!
> 30 µM

---

molecular target: Histone deacetylase 11 (Homo sapiens); assay: Inhibition of recombinant full-length human HDAC11 using RHKK(Ac) as substrate measured after 2 hrs by fluorescence assay
Sequence (Q96DB2 whole entry): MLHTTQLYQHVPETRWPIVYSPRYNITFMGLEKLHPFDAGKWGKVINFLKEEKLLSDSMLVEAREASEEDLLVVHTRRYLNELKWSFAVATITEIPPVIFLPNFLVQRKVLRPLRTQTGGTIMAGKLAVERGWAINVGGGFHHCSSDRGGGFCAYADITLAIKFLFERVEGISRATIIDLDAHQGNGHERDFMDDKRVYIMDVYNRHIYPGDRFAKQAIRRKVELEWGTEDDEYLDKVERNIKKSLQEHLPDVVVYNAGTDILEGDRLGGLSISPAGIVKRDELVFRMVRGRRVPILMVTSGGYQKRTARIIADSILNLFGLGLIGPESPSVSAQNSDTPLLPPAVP
Answer each item with its documented IC50.
Number in nM, nothing else.

Return reported IC50 for target or system Histone deacetylase 11 (Homo sapiens), item `O=C(/C=C/c1cccn(CCc2ccc3ccccc3c2)c1=O)NO` .
161

Return reported IC50 for target or system Histone deacetylase 11 (Homo sapiens), item `O=C(/C=C/c1cccn(CCCc2ccc3ccccc3c2)c1=O)NO` .
54.7

The reported measurements were obtained from ChEMBL document CHEMBL4422610.
